Experiment summary: Pharmacokinetic study, single intravenous infusion in cynomolgus monkeys
Experimental setup: both sexes, cynomolgus monkey, in vivo, 3 mg/kg
Attribute measured: AUC(0-t) (ng·h/mL)

Molecule: CC[C@@]1(O)C(=O)OCc2c1cc1n(c2=O)Cc2c-1nc1cc(F)c(C)c3c1c2[C@@H](NC(=O)C[C@H](C)O)CC3 [P-III-30]
Attribute measured: AUC(0-t)
Reported measurement: 1.07

----------
Experiment summary: Pharmacokinetic study, single intravenous infusion in cynomolgus monkeys
Experimental setup: both sexes, cynomolgus monkey, in vivo, 10 mg/kg

Smiles string: CC[C@@]1(O)C(=O)OCc2c1cc1n(c2=O)Cc2c-1nc1cc(F)c(C)c3c1c2[C@@H](NC(=O)C[C@H](C)O)CC3
AUC(0-t) (ng·h/mL): 44.5

----------
Experiment summary: Pharmacokinetic study, single intravenous infusion in cynomolgus monkeys
Experimental setup: both sexes, cynomolgus monkey, in vivo, 10 mg/kg
Experimental: 18 cynomolgus monkeys (half female and half male) were weighed one day before administration, stratified based on the weight, and then randomly divided into 3 groups (3 females and 3 males/group): a low dose group (1 mg/kg), a medium dose group (3 mg/kg), and a high dose group (10 mg/kg). […]
Attribute measured: Cmax (ng/mL)

Smiles string: CC[C@@]1(O)C(=O)OCc2c1cc1n(c2=O)Cc2c-1nc1cc(F)c(C)c3c1c2[C@@H](NC(=O)C[C@H](C)O)CC3
Reported measurement: 0.573

----------
Experiment summary: Pharmacokinetic study, single intravenous infusion in cynomolgus monkeys
Experimental setup: both sexes, cynomolgus monkey, in vivo, 3 mg/kg
Attribute measured: Cmax (ng/mL)

Molecule: CC[C@@]1(O)C(=O)OCc2c1cc1n(c2=O)Cc2c-1nc1cc(F)c(C)c3c1c2[C@@H](NC(=O)C[C@H](C)O)CC3 [P-III-30]
Reported measurement: 0.133
